# Tested on: NCI-H460
# experimentDescription: NCI tumour cell line growth inhibition, 48 h
Calls of active or inactive are those of the source. Rule as the data show it: active = GI50 up to about 1.1 µM and inactive = higher.
The following compounds are shown together with reported GI50 values.

Worked examples follow.
{"compound": "COc1cc(/C=C\\C(=O)O)ccc1OCc1ccccc1", "GI50": "> 100 µM (inactive)"}
{"compound": "CCOC(=O)C(NC(=O)c1cccc(Cl)c1)(Nc1ccc(S(=O)(=O)Nc2cc(C)on2)cc1)C(F)(F)F (stereo not given)", "GI50": "> 100 µM (inactive)"}
{"compound": "O=C(NP(=O)(N1CC1)N1CC1)c1cc(I)ccc1I [DIIODBENZOTEPH]", "GI50": "3.72 µM (inactive)"}
{"compound": "c1cc(-c2ccc(-c3ccc(C4=NC5CCCCC5N4)cc3)o2)ccc1C1=NC2CCCCC2N1 (stereo not given)", "GI50": "1.84 µM (inactive)"}

Continue with the next compound.
// query Recorded GI50 for `CNC(=O)OCc1nc(SC(C)C)n(C)c1COC(=O)NC` , please?
// result 72.8 µM (inactive)

====

# Tested on: UO-31
# experimentDescription: NCI tumour cell line growth inhibition, 48 h
Calls of active or inactive are those of the source. No stated cut-off is given here; in the data, active = GI50 up to about 1.1 µM and inactive = higher.
Would you mind answering with one of these outcomes? YES = active, NO = inactive

Look over these answered cases.
{"molecule": "CSc1ncc2c(n1)-c1ccccc1OC2", "className": "NO"}
{"molecule": "Nc1ccn(C2CC3OCC3O2)c(=O)n1 (stereo unspecified)", "className": "NO"}
{"molecule": "CCCCCCCCCCCCCCCCP(=O)([O-])OCC[N+](C)(C)C", "className": "NO"}
{"molecule": "CNC(=O)C(C)C1CCC2(C)C=CC(=O)C(C)=C2C1O (stereo unspecified)", "className": "NO"}
{"molecule": "CC(C)(C)OC(=O)NC(Cc1ccccc1)C(=O)N[C@H]1c2ccsc2/C(=N/O)[C@H]1O (stereo partly specified)", "className": "NO"}

// query Test call for this molecule, please: O=C(O)c1ccccc1CC1Cc2ccc3c(c2C1=O)CCC3 (stereo unspecified)
// result NO

// query // repeat for Cc1ccc(C)n1-c1ccccc1C1C=Cn2c3c1c(=O)c(OC(C)C)c(OC(C)C)c-3n[nH]c2=O (stereo unspecified) and report
// result NO

// query // repeat for O=C1C2C(C(=O)N1c1ccccc1)C1([N+](=O)[O-])C=C3c4ccccc4N(C(=O)c4ccccc4)C32C2C(=O)N(c3ccccc3)C(=O)C21 (stereo unspecified) and report
// result NO

====

# System: SF-295
# experimentDescription: NCI tumour cell line growth inhibition, 48 h
Active and inactive are the calls of the source. Cut-off read from the data, not from the text of the source: active = GI50 up to about 1.1 µM and inactive = higher.
Would you mind answering with one of these outcomes? true (1) for active, false (0) for inactive

Look over these answered cases.
{"compound": "CC(C)(C)c1ccc(O)c(CN(Cc2cc(C(C)(C)C)ccc2O)C2CCCCC2)c1", "className": "false (0)"}
{"compound": "COc1ccc(/C=C2/SC(c3ccccc3)N(NC(=O)CCCCCCCCC(=O)NN3C(=O)/C(=C\\c4ccc(OC)c(OC)c4)SC3c3ccccc3)C2=O)cc1OC (centres undefined)", "className": "false (0)"}

// query Test call for this compound, please: `COc1ccc2c(-c3ccc(O)cc3)c(Oc3ccc(Cl)cc3)c(=O)oc2c1`
// result false (0)

// query // repeat for `COC(=O)c1s/c(=N\C(=S)N(C)C)n(-c2ccccc2)c1C(=O)OC` and report
// result false (0)

// query // repeat for `Cc1c(C(=O)/C=C/c2ccccc2Cl)[n+]([O-])c2ccccc2[n+]1[O-]` and report
// result false (0)

// query // repeat for `O=C(O)CCCCCCC[C@H]1S[C@H]1CCCCCCO` and report
// result false (0)

// query // repeat for O=C1CCC2(c3ccc(Cl)cc3)Nc3ncncc3N12 (centres undefined) and report
// result false (0)

// query // repeat for `OC(C/C=N/N=C/CC(O)(C(F)(F)Cl)C(F)(F)Cl)(C(F)(F)Cl)C(F)(F)Cl` and report
// result false (0)

// query // repeat for `COc1ccc(-c2nc(-c3cnccn3)n(Cc3ccccc3)n2)cc1` and report
// result false (0)

// query // repeat for CC(C)(C)OC(=O)NC(Cc1ccccc1)C(=O)N[C@H]1c2ccsc2/C(=N/O)[C@H]1O (some centres undefined) and report
// result false (0)

// query // repeat for `O=C(c1cccc2ccccc12)C1S(=O)(=O)OCCOS1(=O)=O` and report
// result true (1)

Cited source for all entries: ChEMBL document CHEMBL1201862
